molecular target: pooled human IgG
recorded endpoint: Enzyme Activity Endpoint Assay (purified): Fc (ng/µL)
// note: answer is a bare numeric in ng/µL

>>> result_value("PRT-671 (protein) MQITTVWTKGVTPPTPEQFRNNNEDVFHAPYLPHQGWYDITKAFDGKDNLLCGAATAGNMLHWWFDQNKEEIEAYLKKYPEKQKIIFNNQELFDLRKAINTKDSQTNSQLFNYFRDKAFPNLSARQLGVMPDHVLDMFINGYYLNVFKTQSTDVNRPYQTRDKRGGIFDAVFNRGDQTTLLTERHDLYNKGLDDISTLIKQELSSGKALGLSHTYANVSISHVINLWGADFNAEGNLEAIYVTDSDDDASIGMKKYYVGKNASGHVRISAKKIEGENIGAQVLGLFTLSTGKDIWQKLSLEHHHHHH")
294

Attention now shifts to the item below.
Asked: Any idea what Enzyme Activity Endpoint Assay (purified): Fc was measured for PRT-143 (protein) MANQEIRYSEVTPYHITSVWTKGVTPPANFTQGEDVFHAPYVANQGWYDITKTFNGKDDLLCGAATAGNMLHWWFDQNKDQIKRYLEEHPEKQKINFNGEQMFDVKEAIDTKNHQLDSKLFEYFKEKAFPYLSTKHLGVFPDHVIDMFINGYRLSLTNHGPTPVKEGSKDPRGGIFDAVFTRGDQSKLLTSRHDFKEKTLNEISQLIKQELTEGKALGLSHTYANVRINHVINLWGADFDAEGNLEAIYVTDSDSNASIGMKKYFVGVNSAGKVAISAKEIKEDNIGAQVLGLFTLSTGQDSWNQTN ?
Given back: 170
